Target: human Peroxisome Proliferator-activated Receptor alpha (PPARa), PPARA (gene 5465) (UniProt Q07869)
Sequence (Q07869 whole entry, looked up): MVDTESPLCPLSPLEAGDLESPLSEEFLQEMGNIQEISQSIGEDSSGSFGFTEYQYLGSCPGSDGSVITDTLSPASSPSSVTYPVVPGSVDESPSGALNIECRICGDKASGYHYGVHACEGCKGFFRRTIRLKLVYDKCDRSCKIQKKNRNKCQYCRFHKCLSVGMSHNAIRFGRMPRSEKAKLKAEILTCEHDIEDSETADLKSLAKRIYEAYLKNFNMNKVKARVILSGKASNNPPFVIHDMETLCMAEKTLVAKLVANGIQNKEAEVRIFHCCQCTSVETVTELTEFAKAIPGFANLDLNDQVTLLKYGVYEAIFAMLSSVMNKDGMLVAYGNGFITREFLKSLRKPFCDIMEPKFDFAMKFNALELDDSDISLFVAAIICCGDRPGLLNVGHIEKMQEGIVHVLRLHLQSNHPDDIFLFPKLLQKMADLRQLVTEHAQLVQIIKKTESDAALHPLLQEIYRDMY
Assay: ATG_PPARa_TRANS: Attagene TRANS-FACTORIAL HepG2 Assay for human Peroxisome Proliferator-activated Receptor alpha (PPARa) (AID 2283001)
Results filed as inconclusive are left out. Calls of active or inactive are those of the source. The calls were made as follows: active = hit-call score of the fitted dose curve at least 0.9, where 1 is the maximum; inconclusive = response in the unintended direction; inactive = score below 0.9.
Use one of these outcomes when replying: active, inactive

Q. Please indicate how the test categorized "C[C@H]1O[C@@H](O[C@H]2[C@@H](O)C[C@H](O[C@H]3[C@@H](O)C[C@H](O[C@H]4CC[C@@]5(C)[C@H](CC[C@@H]6[C@@H]5CC[C@]5(C)[C@@H](C7=CC(=O)OC7)CC[C@]65O)C4)O[C@@H]3C)O[C@@H]2C)C[C@H](O)[C@@H]1O" .
A. active

Q. // same read-out, input: "CCC(=O)c1ccccc1"
A. inactive

Q. Proceed to "COS(=O)(=O)c1ccc(C)cc1"
A. inactive

Q. Could you do the same for "NC(=S)Nc1ccccc1" , please?
A. inactive

Q. Similarly, "COc1cc2c(cc1OC)[C@@]13CCN4CC5=CCO[C@H]6CC(=O)N2[C@H]1[C@H]6[C@H]5C[C@H]43" ?
A. inactive

###

Test system: rat Monoamine Oxidase, MAO-A, Central (MAOAC), gene 29253
Experiment: NVS_ENZ_rMAOAC: NovaScreen (NVS) Enzymatic Assay for rat Monoamine Oxidase, MAO-A, Central (MAOAC) (AID 2283243);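 also: potency refers to inhibition seen as signal drop below DMSO baseline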
Activity calls are given as the source filed them. How the source made its calls: active means hit-call score of the fitted dose curve at least 0.9, where 1 is the maximum; inconclusive means response in the unintended direction; inactive means score below 0.9.
Provide the reported AC50 of each item.

Q. What AC50 value was documented for this compound, "CCN1CCC2(CC1)COc1cc3c(cc12)N(C(=O)c1ccc(-c2ccc(-c4nnc(C)o4)cc2C)cc1)CC3" ?
A. 23.4 µM (active)

Q. Also, "CCOC(=O)Nc1cccc(OC(=O)Nc2ccccc2)c1" please.
A. 5.76 µM (active)

Q. Likewise for "Nc1cccc2ccccc12" ?
A. 25 µM (active)

Q. Do the same for "O=[N+]([O-])c1ccc2c3c(cccc13)CC2" please
A. 6.28 µM (active)

Q. Continue with "Oc1ccc(-c2ccccc2)cc1"
A. 13.8 µM (active)

###

Read-out: Urokinase-type plasminogen activator receptor (uPAR), PLAUR (gene 5329)
Assay: BSK_CASM3C_uPAR: BioMAP Diversity Plus: CASM3C Assay for Urokinase-type plasminogen activator receptor (uPAR) Biomarker Activity (AID 2283054);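 also: cell-surface uPAR protein level quantified by ELISA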
Conditions: primary human coronary artery smooth muscle cells; actives raise or lower the signal
Calls of active or inactive are those of the source. Rule for the calls: active = hit-call score of the fitted dose curve at least 0.9, where 1 is the maximum; inactive = score below 0.9.
Outcome (select one): Y = active, N = inactive

Q. Assay result, entry "CC(C)c1ccc(CO)cc1" — outcome?
A. N

Q. Item: "O=C(O)C(F)(F)C(F)(F)C(F)(F)C(F)(F)C(F)(F)C(F)(F)C(F)(F)C(F)(F)C(F)(F)C(F)(F)F"
A. N

Q. "COC(=O)c1sccc1S(=O)(=O)NC(=O)Nc1nc(C)nc(OC)n1" , same question.
A. N

Q. Now the same for "C=CC(=O)OCCCCCC(C)C"
A. N

Q. Same lookup for "O=C(OC1CCCCC1)c1ccccc1C(=O)OC1CCCCC1" , please.
A. N

Q. // same read-out, input: CCOP(=S)(OCC)Oc1ccc(S(C)=O)cc1 (centres undefined)
A. N

Q. Query "O=Cc1cccc(Oc2ccccc2)c1" next
A. N

Q. Same question for "Cn1sc(Cl)cc1=O" please.
A. N

Q. Now give it for "COP(=S)(OC)Oc1ccc(S(=O)(=O)N(C)C)cc1" too.
A. N

Q. Same for "O=S(=O)(c1ccc(Cl)cc1)c1ccc(Cl)cc1"
A. N

Q. Param item: "O=[N+]([O-])c1ccc2c3c(cccc13)CC2"
A. N

Q. // same read-out, input: "OCc1ccco1"
A. N

Q. # repeat for "C(=NC1CCCCC1)=NC1CCCCC1"
A. Y

Q. And CCCCC(CC)CO[N+](=O)[O-] (centres undefined) ?
A. Y
